Test system: NK-92 (IL-2 2.5 ng/mL)
Assay: percent inhibition of viability; higher = more inhibition
Details: 72 h; 1000 nM
Lab note: cut-off is 40%. Strictly less in percent inhibition of viability is True. Exactly 40% or more is False.

molecule	group
COCC1(CO)C(=O)C2CCN1CC2 (stereo unspecified) [APR-246] (max concentration tested 10000 nM)	True
CCN1CCN(c2ccc(Nc3cc(N(C)C(=O)Nc4c(Cl)c(OC)cc(OC)c4Cl)ncn3)cc2)CC1 [NVP-BGJ398] (max concentration tested 1000 nM)	True
COc1cc2c(Nc3ccc(Cl)c(Cl)c3F)ncnc2cc1OC[C@@H]1C[C@@H]2CN(C)C[C@@H]2C1 [XL-647] (max concentration tested 1000 nM)	False

QUERY: Please state whether percent inhibition of viability is below 40% for O=C(/C=C/c1cccnc1)NCCCCC1CCN(C(=O)c2ccccc2)CC1 [Daporinad] (max concentration tested 1000 nM)
RESULT: False

QUERY: Please state whether percent inhibition of viability is below 40% for COC(=O)C[C@](O)(CCCC(C)(C)O)C(=O)O[C@@H]1C(OC)=C[C@]23CCCN2CCc2cc4c(cc2[C@H]13)OCO4 [Omacetaxine] (max concentration tested 10000 nM)
RESULT: False

---

Tested on: YT (IL-2 2.5 ng/mL)
Assay: percent inhibition of viability; higher = more inhibition
Conditions: 72 h; 10000 nM
percent inhibition of viability values by entry

Examples from the recorded data:
molecule	system name	observable	reported measurement
N#CC(c1ccnc(OCc2ccc(CN3CCOCC3)cc2)n1)c1nc2ccccc2s1 (stereo not drawn) [Bentamapimod] (max concentration tested 10000 nM)	YT (IL-2 2.5 ng/mL)	percent inhibition of viability	56.8%
CC1(C)CCC(CN2CCN(c3ccc(C(=O)NS(=O)(=O)c4ccc(NCC5CCOCC5)c([N+](=O)[O-])c4)c(Oc4cnc5[nH]ccc5c4)c3)CC2)=C(c2ccc(Cl)cc2)C1 [Venetoclax] (max concentration tested 10000 nM)	YT (IL-2 2.5 ng/mL)	percent inhibition of viability	88.4%

Shifting focus to the molecule that follows.
QUERY: For Oc1ncc(N(CCCl)CCCl)c(O)n1 [Uracil mustard] (max concentration tested 10000 nM) , what is its reported percent inhibition of viability?
RESULT: 8.3%

---

Tested on: normal primary NK cells, pool 2 (3 donors) (IL-2 2.5 ng/mL)
Assay: drug sensitivity score (DSS) (DSS units); higher = more sensitive; extreme values may be limits of the assay
Settings: 72 h
Entry flag: Condition met if drug sensitivity score reaches 9; Condition not met if it does not.

Record excerpt, results attached:
compound	group
COc1cc2c(Nc3ccc(Cl)c(Cl)c3F)ncnc2cc1OC[C@@H]1C[C@@H]2CN(C)C[C@@H]2C1 [XL-647] (max concentration tested 1000 nM)	Condition not met
O=C(Nc1ccncc1)C(=O)c1cn(Cc2ccc(Cl)cc2)c2ccccc12 [Indibulin] (max concentration tested 10000 nM)	Condition not met
CC1=C(/C=C/C(C)=C/C=C/C(C)=C/C(=O)O)C(C)(C)CCC1 [Tretinoin] (max concentration tested 10000 nM)	Condition not met
CN(C)C/C=C/C(=O)Nc1cc2c(Nc3ccc(F)c(Cl)c3)ncnc2cc1O[C@H]1CCOC1 [Afatinib] (max concentration tested 1000 nM)	Condition not met
COCC1(CO)C(=O)C2CCN1CC2 (stereo unspecified) [APR-246] (max concentration tested 10000 nM)	Condition met

Now look at this entry.
QUERY: Is drug sensitivity score for CN(c1ccccc1CNc1nc(Nc2ccc3c(c2)CC(=O)N3)ncc1C(F)(F)F)S(C)(=O)=O (max concentration tested 10000 nM) at or above 9?
RESULT: Condition not met

---

percent inhibition of viability values by entry
Tested on: normal primary NK cells, pool 2 (3 donors) (IL-2 2.5 ng/mL)
Assay: percent inhibition of viability; higher = more inhibition
Details: 72 h; 1 nM

Examples from the recorded data:
compound	percent inhibition of viability
Cc1sc2c(c1C)C(c1ccc(Cl)cc1)=N[C@@H](CC(=O)Nc1ccc(O)cc1)c1nnc(C)n1-2 [OTX015] (max concentration tested 10000 nM)	-6.93%
O=C(c1ccc(F)c(F)c1Nc1ccc(I)cc1F)N1CC(O)([C@@H]2CCCCN2)C1 [Cobimetinib] (max concentration tested 1000 nM)	-9.92%
NC(=O)c1ccc(I)c([N+](=O)[O-])c1 [Iniparib] (max concentration tested 10000 nM)	-8.36%
O=C(Nc1cccc(Cl)c1)Nc1ncc(CCNc2ncnc3ccsc23)s1 [SNS-314] (max concentration tested 1000 nM)	1.8%

QUERY: For O=C(O)c1ccc(Nc2ncc3c(n2)-c2ccc(Cl)cc2C(c2c(F)cccc2F)=NC3)cc1 [MLN-8054] (max concentration tested 10000 nM) , what is its reported percent inhibition of viability?
RESULT: 1.69%

---

System: DERL-7 (IL-2 2.5 ng/mL)
Experiment: drug sensitivity score (DSS) (DSS units); higher = more sensitive; extreme values may be limits of the assay
Conditions: 72 h
drug sensitivity score values by entry

molecule	system name	reported measurement
O=C(/C=C/c1cccnc1)NCCCCC1CCN(C(=O)c2ccccc2)CC1 [Daporinad] (max concentration tested 1000 nM)	DERL-7 (IL-2 2.5 ng/mL)	35.4
COc1cc(F)c(F)c(Nc2ccc(I)cc2F)c1NS(=O)(=O)C1(C[C@H](O)CO)CC1 [Refametinib] (max concentration tested 10000 nM)	DERL-7 (IL-2 2.5 ng/mL)	14.7
CC(=O)c1c(C)c2cnc(Nc3ccc(N4CCNCC4)cn3)nc2n(C2CCCC2)c1=O [Palbociclib] (max concentration tested 10000 nM)	DERL-7 (IL-2 2.5 ng/mL)	8.89

QUERY: What drug sensitivity score appears in the records for this molecule with DERL-7 (IL-2 2.5 ng/mL)? CC(C)C[C@@H](C(=O)N[C@H](C(=O)OC1CCCC1)c1ccccc1)[C@H](O)C(=O)NO [Tosedostat] (max concentration tested 10000 nM)
RESULT: 18

QUERY: What drug sensitivity score appears in the records for this molecule with DERL-7 (IL-2 2.5 ng/mL)? O=C(Nc1ccc2[nH]nc(-c3ccncc3)c2c1)[C@@H]1CCN(CC(=O)N2CCN(c3ccc(-c4ncccn4)cc3)CC2)C1 (max concentration tested 10000 nM)
RESULT: 10.3

QUERY: What drug sensitivity score appears in the records for this molecule with DERL-7 (IL-2 2.5 ng/mL)? O=C(c1ccc(/C=C/c2n[nH]c3ccccc23)cc1)N1CCNCC1 [KW-2449] (max concentration tested 2500 nM)
RESULT: 2.35

QUERY: What drug sensitivity score appears in the records for this molecule with DERL-7 (IL-2 2.5 ng/mL)? C[C@@H]1C=C2C(=O)O[C@@H]3CC[C@H](C1)[C@]23O [Galiellalactone] (max concentration tested 25000 nM)
RESULT: 10.3

QUERY: What drug sensitivity score appears in the records for this molecule with DERL-7 (IL-2 2.5 ng/mL)? COc1cc2ncnc(Nc3ccc(F)c(Cl)c3)c2cc1OCCCN1CCOCC1 [Gefitinib] (max concentration tested 10000 nM)
RESULT: 4.07

QUERY: What drug sensitivity score appears in the records for this molecule with DERL-7 (IL-2 2.5 ng/mL)? Cc1cc(C(C)Nc2ccccc2)c2nc(N3CCOCC3)cc(=O)n2c1 (stereo not drawn) [TGX-221] (max concentration tested 10000 nM)
RESULT: 1.37

QUERY: What drug sensitivity score appears in the records for this molecule with DERL-7 (IL-2 2.5 ng/mL)? Cc1[nH]c2ccccc2c1CCNCc1ccc(/C=C/C(=O)NO)cc1 [Panobinostat] (max concentration tested 1000 nM)
RESULT: 23

QUERY: What drug sensitivity score appears in the records for this molecule with DERL-7 (IL-2 2.5 ng/mL)? Cn1cc(C2=Nc3cc(NC(=O)C(N)C4CCCCC4)cc4c3C2=CNNC4=O)cn1 (stereo not drawn) (max concentration tested 10000 nM)
RESULT: 11.1

QUERY: What drug sensitivity score appears in the records for this molecule with DERL-7 (IL-2 2.5 ng/mL)? N#CC(c1ccnc(OCc2ccc(CN3CCOCC3)cc2)n1)c1nc2ccccc2s1 (stereo not drawn) [Bentamapimod] (max concentration tested 10000 nM)
RESULT: 4.97

QUERY: What drug sensitivity score appears in the records for this molecule with DERL-7 (IL-2 2.5 ng/mL)? CCc1c2c(nc3ccc(OC(=O)N4CCC(N5CCCCC5)CC4)cc13)-c1cc3c(c(=O)n1C2)COC(=O)[C@]3(O)CC [Irinotecan] (max concentration tested 10000 nM)
RESULT: 13.6

---

Tested on: normal primary NK cells, pool 1 (3 donors), resting (IL-2 0 ng/mL)
Experiment: percent inhibition of viability; higher = more inhibition
Conditions: 72 h; 1 nM
observable: percent inhibition of viability (%)
Return type: number; implicit unit %.

Examples from the recorded data:
molecule	percent inhibition of viability / %
CN(C)c1nc(N(C)C)nc(N(C)C)n1 [Altretamine] (max concentration tested 10000 nM)	-0.78
O=C(c1ccc(F)c(F)c1Nc1ccc(I)cc1F)N1CC(O)([C@@H]2CCCCN2)C1 [Cobimetinib] (max concentration tested 1000 nM)	3.18
FC(F)(F)c1ccc(/C=C/c2nc(COc3ccc(CCCCn4ccnn4)cc3)co2)cc1 [Mubritinib] (max concentration tested 1000 nM)	1.44

Shifting focus to the molecule that follows.
QUERY: For COc1cccc2c1C(=O)c1c(O)c3c(c(O)c1C2=O)C[C@@](O)(C(C)=O)C[C@@H]3O[C@H]1C[C@H](N)[C@H](O)[C@H](C)O1 [Daunorubicin] (max concentration tested 1000 nM) , what is its reported percent inhibition of viability?
RESULT: -27.6
